Listed next: entries and their corresponding logP (HCOOH).
measurement-protocol: log P determination by HPLC on reversed-phase columns (C 18), analogously to OECD Guideline 117
Assay type: physicochemical
assay-conditions: LC-MS in the acidic range, pH 2.7, 0.1% aqueous formic acid / acetonitrile, HPLC reversed-phase C 18
Please reply with the value in numeric form only.

molecule	val
C=CCn1c(=O)n(-c2ccc(C)c(SCC(F)(F)F)c2)n(-c2ccc(C)c(SCC(F)(F)F)c2)c1=O [Example 79]	4.86

### Prompt Entry Cn1c(=O)n(C)n(-c2cc([S+]([O-])CC(F)(F)F)c(F)cc2F)c1=O (stereo not shown) [Example 70] has what logP (HCOOH)?
### Response 1.64

### Prompt Entry Cc1cc(F)c(-n2c(=O)n(C(C)C)c(=O)n2C)cc1[S+]([O-])CC(F)(F)F (stereo not shown) [Example 92] has what logP (HCOOH)?
### Response 2.27

### Prompt Entry Cc1cc(F)c(N2C(=O)C(=O)N(CC(F)(F)F)C2=S)cc1SCC(F)(F)F [Example 189] has what logP (HCOOH)?
### Response 3.95
